Target: Tyrosine-protein kinase JAK3 (Homo sapiens, UniProt P52333)
Sequence (P52333 whole entry): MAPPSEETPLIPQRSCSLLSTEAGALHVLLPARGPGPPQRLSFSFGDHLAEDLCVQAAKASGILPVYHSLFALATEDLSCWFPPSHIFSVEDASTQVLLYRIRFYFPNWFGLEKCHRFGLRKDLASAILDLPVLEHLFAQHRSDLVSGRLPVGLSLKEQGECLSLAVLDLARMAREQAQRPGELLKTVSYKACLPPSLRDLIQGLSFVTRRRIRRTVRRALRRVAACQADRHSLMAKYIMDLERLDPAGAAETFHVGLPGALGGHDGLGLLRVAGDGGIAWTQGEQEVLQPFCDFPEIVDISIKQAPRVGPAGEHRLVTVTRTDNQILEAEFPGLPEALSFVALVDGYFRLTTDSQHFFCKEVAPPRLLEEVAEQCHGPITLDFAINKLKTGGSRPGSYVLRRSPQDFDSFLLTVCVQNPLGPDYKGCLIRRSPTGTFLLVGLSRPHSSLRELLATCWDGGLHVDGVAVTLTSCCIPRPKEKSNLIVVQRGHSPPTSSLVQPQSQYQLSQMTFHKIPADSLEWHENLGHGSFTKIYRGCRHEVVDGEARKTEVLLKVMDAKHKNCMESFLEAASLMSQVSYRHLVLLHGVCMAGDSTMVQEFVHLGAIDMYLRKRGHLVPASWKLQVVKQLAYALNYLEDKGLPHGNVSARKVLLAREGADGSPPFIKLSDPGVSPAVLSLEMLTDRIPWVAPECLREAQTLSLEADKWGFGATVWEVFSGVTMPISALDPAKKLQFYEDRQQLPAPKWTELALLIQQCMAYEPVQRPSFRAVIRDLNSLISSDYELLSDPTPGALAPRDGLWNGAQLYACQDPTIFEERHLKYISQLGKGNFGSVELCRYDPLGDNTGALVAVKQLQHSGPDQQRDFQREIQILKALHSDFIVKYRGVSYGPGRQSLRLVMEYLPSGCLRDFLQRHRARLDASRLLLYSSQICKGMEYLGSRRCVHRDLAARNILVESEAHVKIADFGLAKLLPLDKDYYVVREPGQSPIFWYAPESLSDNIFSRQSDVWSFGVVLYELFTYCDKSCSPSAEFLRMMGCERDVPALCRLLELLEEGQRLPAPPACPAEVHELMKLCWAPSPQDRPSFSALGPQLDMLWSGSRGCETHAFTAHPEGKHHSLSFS
Assay: JAK Caliper Enzyme Assay at 1 mM ATP: Test article was solubilized in dimethyl sulfoxide (DMSO) to a stock concentration of 30 mM. An 11-point half log dilution series was created in DMSO with a top concentration of 600 μM. […] The compound plates were diluted 1 to 60 resulting in a top final assay compound concentration of 10 μM and a 2% DMSO concentration.Test article and assay controls were added to a 384-well plate. Reaction mixtures contained 20 mM HEPES, pH 7.4, 10 mM magnesium chloride, 0.01% bovine serum albumin (BSA), 0.0005% Tween 20, 1 mM ATP and 1 μM peptide substrate. The JAK1 and TYK2 assays contained 1 μM of the IRStide peptide (5FAM-[…]) and the JAK2 and JAK3 assays contained 1 μM of the JAKtide peptide (FITC-[…]). […] Enzyme concentrations and incubation times were optimized for each new enzyme preps and were modified slightly over time to ensure 20%-30% phosphorylation. The assays were stopped with a final concentration of 10 mM EDTA, 0.1% Coating Reagent and 100 mM HEPES, pH=7.4. The assay plates were placed on a Caliper Life Science Lab Chip 3000 (LC3000) instrument, and each well was sampled using appropriate separation conditions to measure the unphosphorylated and phosphorylated peptide.
measured_attribute: IC50 (nM)

# example entries with known answers
CCc1cc(O)ccc1-c1cc2[nH]ncc2c(N2CCc3ccc(OC)c(OC)c3C2)n1    194
CCc1cc(O)ccc1-c1cc2[nH]ncc2c(N2CCc3cc(OC)c(OCc4ccccc4)cc3C2)n1    340

(A) CN(c1ccc(F)cc1CNc1nc(-c2cc(F)c(O)cc2CC(F)(F)F)cc2[nH]nc(C(N)=O)c12)S(C)(=O)=O
(B) CCc1cc(O)c(F)cc1-c1cc2[nH]ncc2c(NCc2ccccc2N(C)S(=O)(=O)CC)n1
(C) CCc1cc(O)ccc1-c1cc2[nH]ncc2c(N2CCc3cc(F)ccc3C2)n1
(D) CCCCN(c1ccccc1CN(C)c1nc(-c2cc(F)c(O)cc2CC)cc2[nH]ncc12)S(C)(=O)=O
Prompt: Please list these compounds in decreasing order of IC50. Field: ranking. Enter the labels in the order requested.
Response: A, D, C, B

(P) CCc1cc(O)ccc1-c1cc2[nH]ncc2c(N2CCc3c(Cl)cccc3C2)n1
(Q) CCc1cc(O)ccc1-c1cc2[nH]ncc2c(N2CCc3cc(OCCOC)ccc3C2)n1
Prompt: Please tell me which of the two, P or Q , has the higher reported IC50 value. Answer format: the label of the selected item.
Response: P
(P: 111 nM, Q: 56.2 nM)

Provenance of the data: ChEMBL document CHEMBL5725720
